Molecular target: T1, 4H2442-bA
T1 chain: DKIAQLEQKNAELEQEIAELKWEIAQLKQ
Test: two-hybrid library CCNG1;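 further: natural log of median RNA to DNA barcode read ratio; higher means stronger binding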
quantity: interaction score

(A) DENAQLEQENAELKQKIAELKWEIAQLEQ [4H1257-bA]
(B) DENAQLKQKIAELEQKIAELEWENAQLKQ [4H1828-bA]
(C) DKIAQLEQKNAELEQEIAELKWEIAQLKQ [4H2442-bA]
Could you put the items above in increasing order of their interaction score? Could you list the labels in the order requested?
A, B, C
